Molecular target: Cellular tumor antigen p53 (Homo sapiens) (UniProt P04637)
Sequence (P04637 whole entry, looked up): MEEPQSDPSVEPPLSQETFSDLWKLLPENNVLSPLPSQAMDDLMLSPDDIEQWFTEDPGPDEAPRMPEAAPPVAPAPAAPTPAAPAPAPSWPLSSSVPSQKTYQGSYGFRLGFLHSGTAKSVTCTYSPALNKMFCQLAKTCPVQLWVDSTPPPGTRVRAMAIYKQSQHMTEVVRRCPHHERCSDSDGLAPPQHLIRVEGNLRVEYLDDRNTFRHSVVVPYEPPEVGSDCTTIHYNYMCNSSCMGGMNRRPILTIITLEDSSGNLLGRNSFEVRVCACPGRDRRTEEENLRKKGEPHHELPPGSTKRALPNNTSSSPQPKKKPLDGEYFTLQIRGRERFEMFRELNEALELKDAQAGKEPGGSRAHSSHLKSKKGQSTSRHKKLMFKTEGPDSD
Experiment: TOX21_p53_BLA_p4_ratio: Tox21 HCT-116 p53 Agonism Beta-lactamase Assay, Ratio, Phase 4 (AID 2283601)
Inconclusive results are not listed. Activity calls are given as the source filed them. The calls were made as follows: active = hit-call score of the fitted dose curve at least 0.9, where 1 is the maximum; inconclusive = response in the unintended direction; inactive = score below 0.9.
// allowed return values: label 1 (active), label 0 (inactive)

>  <COMPOUND>
CC(C)[C@H](C(=O)O[C@H](C#N)c1cccc(Oc2ccccc2)c1)c1ccc(Cl)cc1

>  <MEASURED TARGET>
Cellular tumor antigen p53 (Homo sapiens) (UniProt P04637)

>  <CLASS NAME>
label 0

$$$$
>  <COMPOUND>
CON=C(C(=O)OC)c1ccccc1CON=C(C)c1cccc(C(F)(F)F)c1

>  <MEASURED TARGET>
Cellular tumor antigen p53 (Homo sapiens) (UniProt P04637)

>  <CLASS NAME>
label 1

$$$$
>  <COMPOUND>
CNC(=O)ON=C(C)SC

>  <MEASURED TARGET>
Cellular tumor antigen p53 (Homo sapiens) (UniProt P04637)

>  <CLASS NAME>
label 0

$$$$
>  <COMPOUND>
CC1(C(=O)Nc2ccc(O)c(Cl)c2Cl)CCCCC1

>  <MEASURED TARGET>
Cellular tumor antigen p53 (Homo sapiens) (UniProt P04637)

>  <CLASS NAME>
label 0

$$$$
>  <COMPOUND>
COc1ccc(C(=CC(=O)N2CCOCC2)c2ccc(Cl)cc2)cc1OC

>  <MEASURED TARGET>
Cellular tumor antigen p53 (Homo sapiens) (UniProt P04637)

>  <CLASS NAME>
label 0

$$$$
>  <COMPOUND>
Nc1nc(N)nc(NC2CC2)n1

>  <MEASURED TARGET>
Cellular tumor antigen p53 (Homo sapiens) (UniProt P04637)

>  <CLASS NAME>
label 0

$$$$
>  <COMPOUND>
CCNc1nc(Cl)nc(NC(C)(C)C#N)n1

>  <MEASURED TARGET>
Cellular tumor antigen p53 (Homo sapiens) (UniProt P04637)

>  <CLASS NAME>
label 0

$$$$
>  <COMPOUND>
CC(C)N(C(=O)SCC(Cl)=C(Cl)Cl)C(C)C

>  <MEASURED TARGET>
Cellular tumor antigen p53 (Homo sapiens) (UniProt P04637)

>  <CLASS NAME>
label 0

$$$$

# ---- query compound ----
Q. # fetch the recorded call for `CCC(CC)Nc1c([N+](=O)[O-])cc(C)c(C)c1[N+](=O)[O-]` here
A. label 0
